- system: T1, hPDL1(19-239)-TVMV-His (human, UniProt Q9NZQ7 19-239)
- T1 construct: The construct name says 19-239, the running text says amino acids 18-239; Expressed in HEK293T cells; also called PD-L1-His; PD-L1-TVMV-His
- T1 sequence (Q9NZQ7 other isoform, or with tags, fused parts or gaps limits assumed): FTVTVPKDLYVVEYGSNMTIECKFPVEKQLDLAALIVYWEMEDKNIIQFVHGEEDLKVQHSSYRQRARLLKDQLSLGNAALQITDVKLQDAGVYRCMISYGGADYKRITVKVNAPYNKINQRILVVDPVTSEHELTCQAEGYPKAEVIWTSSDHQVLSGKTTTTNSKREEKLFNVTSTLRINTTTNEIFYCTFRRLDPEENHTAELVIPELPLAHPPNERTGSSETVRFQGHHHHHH
- assay.details: HTRF competition, PD-1-Ig (20 nM) binding to human PD-L1-His (10 nM)
- Procedure: All binding studies were performed in an HTRF assay buffer consisting of dPBS supplemented with 0.1% (w/v) bovine serum albumin and 0.05% (v/v) Tween-20. […] PD-L1 fusion proteins from either human, cynomologous macaques, or mouse were used. HTRF detection was achieved using europium crypate-labeled anti-Ig monoclonal antibody (1 nM final) and allophycocyanin (APC) labeled anti-His monoclonal antibody (20 nM final). […]
Positions of bridges follow the written chain, without caps; N, C: chain ends. Non-standard residues stand in square brackets, D forms with d. NMeNle = CCCC[C@H](NC)C(=O)O; NMeS = CN[C@@H](CO)C(=O)O; NMeA = CN[C@@H](C)C(=O)O; Sar = CNCC(=O)O
Assignment: determine reported pIC50 for the given binders.
Numbers only, as −log10 of the molar value.

Please review the entries below; each comes with its answer.
{CH2CO}-F[NMeA]NPHL[NMeS]WSW[NMeNle][NMeNle]RCG-NH2 (thioether N-14; SMILES CCCC[C@H]1C(=O)N(C)[C@@H](CCCC)C(=O)N[C@@H](CCCNC(=N)N)C(=O)N[C@H](C(=O)NCC(N)=O)CSCC(=O)N[C@@H](Cc2ccccc2)C(=O)N(C)[C@@H](C)C(=O)N[C@@H](CC(N)=O)C(=O)N2CCC[C@H]2C(=O)N[C@@H](Cc2c[nH]cn2)C(=O)N[C@@H](CC(C)C)C(=O)N(C)[C@@H](CO)C(=O)N[C@@H](Cc2c[nH]c3ccccc23)C(=O)N[C@@H](CO)C(=O)N[C@@H](Cc2c[nH]c3ccccc23)C(=O)N1C, macrocyclic peptide cyclized via the ClAc moiety with the downstream cysteine) [Compound No. 56] :: 7.89
{CH2CO}-F[NMeA]NPHL[Sar]WSM[NMeNle][NMeNle]RCG-NH2 (thioether N-14; SMILES CCCC[C@H]1C(=O)N(C)[C@@H](CCCC)C(=O)N[C@@H](CCCNC(=N)N)C(=O)N[C@H](C(=O)NCC(N)=O)CSCC(=O)N[C@@H](Cc2ccccc2)C(=O)N(C)[C@@H](C)C(=O)N[C@@H](CC(N)=O)C(=O)N2CCC[C@H]2C(=O)N[C@@H](Cc2c[nH]cn2)C(=O)N[C@@H](CC(C)C)C(=O)N(C)CC(=O)N[C@@H](Cc2c[nH]c3ccccc23)C(=O)N[C@@H](CO)C(=O)N[C@@H](CCSC)C(=O)N1C, macrocyclic peptide cyclized via the ClAc moiety with the downstream cysteine) [Compound No. 61] :: 7.51
{CH2CO}-F[NMeA]NPHLHWSW[NMeNle][NMeNle]RCG-NH2 (thioether N-14; SMILES CCCC[C@H]1C(=O)N(C)[C@@H](CCCC)C(=O)N[C@@H](CCCNC(=N)N)C(=O)N[C@H](C(=O)NCC(N)=O)CSCC(=O)N[C@@H](Cc2ccccc2)C(=O)N(C)[C@@H](C)C(=O)N[C@@H](CC(N)=O)C(=O)N2CCC[C@H]2C(=O)N[C@@H](Cc2c[nH]cn2)C(=O)N[C@@H](CC(C)C)C(=O)N[C@@H](Cc2c[nH]cn2)C(=O)N[C@@H](Cc2c[nH]c3ccccc23)C(=O)N[C@@H](CO)C(=O)N[C@@H](Cc2c[nH]c3ccccc23)C(=O)N1C, macrocyclic peptide cyclized via the ClAc moiety with the downstream cysteine) [Compound No. 53] :: 7.47

*Q* I am curious: what pIC50 value has been reported for {CH2CO}-F[NMeA]NPHLRWSW[NMeNle][NMeNle]RCG-NH2 (thioether N-14; SMILES CCCC[C@H]1C(=O)N(C)[C@@H](CCCC)C(=O)N[C@@H](CCCNC(=N)N)C(=O)N[C@H](C(=O)NCC(N)=O)CSCC(=O)N[C@@H](Cc2ccccc2)C(=O)N(C)[C@@H](C)C(=O)N[C@@H](CC(N)=O)C(=O)N2CCC[C@H]2C(=O)N[C@@H](Cc2c[nH]cn2)C(=O)N[C@@H](CC(C)C)C(=O)N[C@@H](CCCNC(=N)N)C(=O)N[C@@H](Cc2c[nH]c3ccccc23)C(=O)N[C@@H](CO)C(=O)N[C@@H](Cc2c[nH]c3ccccc23)C(=O)N1C, macrocyclic peptide cyclized via the ClAc moiety with the downstream cysteine) [Compound No. 54] ?
*A* 7.59
